# key: entry, value: Potency
# Organism: Rattus norvegicus
# run.description: Oral estrogenic potency (E) relative to ethynylestradiol (EE) in rats
# Format: functional
Write the answer as a number in %, unit excluded.

Consider the following illustrative entries.
{"columns": ["compound", "output.unit", "val"],
 "data": [
  ["C#C[C@]1(O)CCC2c3ccc4cc(O)ccc4c3CCC21C (some centres undefined)", "%", 0.6],
  ["CC[Si](C#C[C@]1(O)CC[C@H]2[C@@H]3C[C@H](O)c4cc(O)ccc4[C@H]3CC[C@@]21C)(CC)CC", "%", 38],
  ["CC[Si](C#C[C@]1(O)CC[C@H]2[C@@H]3CCc4cc(O)c(OC)cc4[C@H]3CC[C@@]21C)(CC)CC", "%", 0.06]
]}

Now for a further compound.
Problem: Specify measured Potency for C#C[C@]1(O)CC[C@H]2[C@@H]3[C@H](O)[C@H](O)c4cc(O)ccc4[C@H]3CC[C@@]21C .
Solution: 0.3

----------
# Species: Rattus norvegicus
# run.description: Oral estrogenic potency (E) relative to ethynylestradiol (EE) in rats
# Type: functional
measurement.name: Potency (%)
Give just the number in %; leave the unit off.

Worked examples, 3 molecules total:
{"columns": ["molecule", "output.unit", "val"],
 "data": [
  ["CC[Si](C#C[C@]1(O)CC[C@H]2[C@@H]3C[C@@H](O)c4cc(O)ccc4[C@H]3CC[C@@]21C)(CC)CC", "%", 16],
  ["C#C[C@]1(O)CC[C@H]2[C@@H]3CCc4cc(O)c(OC)cc4[C@H]3CC[C@@]21C", "%", 0.3],
  ["CC[Si](C#C[C@]1(O)CC[C@H]2[C@@H]3[C@H](O)[C@H](O)c4cc(O)ccc4[C@H]3CC[C@@]21C)(CC)CC", "%", 0.6]
]}

Proceed to the following item.
Problem: Give a short answer stating reported Potency for C#C[C@]1(O)CC(OC)[C@H]2[C@@H]3CCc4cc(OC)ccc4[C@H]3CC[C@@]21C (some centres undefined) .
Solution: 0.8

----------
# Species: Rattus norvegicus
# run.description: Oral estrogenic potency (E) relative to ethynylestradiol (EE) in rats
# Format: functional
Outcome label depends on Potency relative to 30%: at/above gives t, below gives f.

{"columns": ["chemical.structure", "class.label"],
 "data": [
  ["CC[Si](C#C[C@]1(O)CC[C@H]2[C@@H]3CCc4cc(O)ccc4[C@H]3CC[C@@]21C)(CC)CC", "t"],
  ["C#C[C@]1(O)CC[C@H]2[C@@H]3CCc4cc(O)ccc4[C@H]3CC[C@@]21C", "t"],
  ["C#C[C@]1(O)CC[C@H]2[C@@H]3CCc4c(ccc(O)c4CC=C)[C@H]3CC[C@@]21C", "f"],
  ["C#C[C@]1(O)CC[C@H]2[C@@H]3C[C@@H](C)c4cc(O)ccc4[C@H]3CC[C@@]21C", "f"],
  ["C#C[C@]1(O)CC[C@H]2[C@@H]3CCc4ccccc4[C@H]3CC[C@@]21C", "t"]
]}

Problem: Quick check, Potency >= 30%? C#C[C@]1(O)CC[C@H]2[C@@H]3CCc4cc(O)c(CN(CCC)CCC)cc4[C@H]3CC[C@@]21C
Solution: f

Problem: Could you please find out whether C#C[C@]1(O)CC[C@H]2[C@@H]3CCc4cc(O)ccc4[C@H]3[C@@H](O)C[C@@]21C has Potency that meets 30% or exceeds it?
Solution: f

FYI, the data here is from ChEMBL document CHEMBL1124055.
